- assay_name: protein stability index of a GFP-peptide fusion (yeast GPS) (PSI 1-4); higher = more stable; sorted into four equal gates, so the index is relative within each strain
- run_parameters: doa10∆
Binary call on protein stability index: 1.0 from 3 upward, 0.0 beneath that.

The examples below pair each entry with its known result.
# seq_string, class
records = [
    ("RNTYQSAMGKQAMGVFL [RPB2]", 0.0),
    ("VVKGLPDISRAVINIRD [RPO31]", 0.0),
    ("AQDVALAKKWFLQHPDE [PRP8]", 0.0),
    ("KDDGAFVKFLSKKGSLE [RPL10]", 1.0),
]

Q) Would you say DFGFDLDIEKEAPAGNI [MCD1] shows protein stability index at minimum 3?
A) 0.0

Q) Hi team, for ESKMRQQEAKYRNNEPA [YDL088C/ASM4] , is the recorded protein stability index at or above 3?
A) 1.0

----------
- assay_name: protein stability index of a GFP-peptide fusion (yeast GPS) (PSI 1-4); higher = more stable; sorted into four equal gates, so the index is relative within each strain
- run_parameters: pdr5∆
Form field: protein stability index (one value per entry).

Here are 2 sequences together with their reported answers.
# seq_string, protein stability index
data = [
    ("IQKQIETIQADLNHVTE [SMC2]", 3.16),
    ("CHDELKALPMLEQVEFE [MED4]", 3.12),
]

For the next question, use this sequence.
Q) Write down protein stability index measured for item IKEKFDEFIKTHEDLPK [IRR1]
A) 2.68

----------
- assay_name: protein stability index of a GFP-peptide fusion (yeast GPS) (PSI 1-4); higher = more stable; sorted into four equal gates, so the index is relative within each strain
- run_parameters: ubr1∆
measurement_kind: protein stability index
Just the number, please.

Example results:
# seq_string, protein stability index
rows = [
    ("TNFEILNEMLNTRKNMS [DIS3]", 3.09),
    ("TGYDLSNSVFSPDGRNF [PRE10]", 2.97),
]

Q) // Input: GAAPYAAKLKQTENDLK [RPT1] . Output its protein stability index only.
A) 2.93

Q) Please report the measured protein stability index for INQIFSPEEQRSLLQEA [GAL11]
A) 3.03

Q) Please indicate protein stability index recorded for IVFDICQILDGELDVLQ [PRP8]
A) 3.07

----------
Reported protein stability index values for the following sequences.
- assay_name: protein stability index of a GFP-peptide fusion (yeast GPS) (PSI 1-4); higher = more stable; sorted into four equal gates, so the index is relative within each strain
- run_parameters: doa10∆
The answer should be written as a number, with no unit following it.

# seq_string, protein stability index
records = [
    ("DGGLFTLFVRDQDSAVV [QCR2]", 3.04),
    ("ETVPDNVKTSVSQLYRI [RPO31]", 2.92),
    ("DSGRGAPLAKVVFRDPY [RPL2A]", 3.06),
    ("GAGSIFTSHTRLRQGAA [RPL2A]", 3.05),
]

Please look at the following sequence next.
Q) Write down protein stability index measured for item KNVNIEDITEPKPDKPS [ESC2]
A) 2.96

----------
- assay_name: protein stability index of a GFP-peptide fusion (yeast GPS) (PSI 1-4); higher = more stable; sorted into four equal gates, so the index is relative within each strain
- run_parameters: san1∆
measurement_kind: protein stability index
No unit in the answer, please; the number alone is enough.

Q) Determine from records and report protein stability index for SEKNKRQSKSSGKSNTS [ITC1]
A) 2.98

Q) Tell me its protein stability index given VVSTTAVIESVVNQPTG [FAS1] as the entry.
A) 1.99

Q) Given RIGKHRKHPGGRGMAGG [RPL28] , respond with its protein stability index.
A) 2.97

Q) Tell us which protein stability index value is on record for SNHNNLNLNNSELQPQN [SNF2]
A) 2.97

Q) // Input: LISNLLFSKNRNEVLES [YCS4] . Output its protein stability index only.
A) 2.97

Q) Please indicate protein stability index recorded for AGEFGLKNKREIYRISF [RPS9B]
A) 3.08

Q) Tell me its protein stability index given NWLSIFNDFSNIKTSEW [REC8] as the entry.
A) 2.94

Cited source for all entries: the supplement of paper PMC9732359
